Target: UniProt:Q96RI1
Sequence (Q96RI1 whole entry): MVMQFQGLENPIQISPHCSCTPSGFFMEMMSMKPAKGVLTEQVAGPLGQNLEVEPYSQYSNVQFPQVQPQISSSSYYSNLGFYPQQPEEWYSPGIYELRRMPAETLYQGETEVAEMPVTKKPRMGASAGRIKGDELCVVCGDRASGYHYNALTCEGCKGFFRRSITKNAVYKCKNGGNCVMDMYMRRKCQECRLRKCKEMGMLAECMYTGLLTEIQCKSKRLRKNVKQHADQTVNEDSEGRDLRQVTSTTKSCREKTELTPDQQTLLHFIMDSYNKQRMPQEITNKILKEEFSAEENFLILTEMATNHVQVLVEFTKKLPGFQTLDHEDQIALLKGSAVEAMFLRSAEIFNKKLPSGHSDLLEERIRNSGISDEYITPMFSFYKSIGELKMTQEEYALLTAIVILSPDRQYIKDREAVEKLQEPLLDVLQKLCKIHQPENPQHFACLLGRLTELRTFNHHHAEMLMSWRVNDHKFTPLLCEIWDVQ
Experiment: Transactivation of human FXR expressed in human HeLa cells co-expressing BSEP at 3 uM after 24 hrs by dual-glo luciferase reporter gene assay relative to GW4064
Format: cell-based
Active and inactive are the calls of the source. The calls are words filed in the database; no cut-off is given here.
MEASUREMENT_NAME: max activation

>>> result("Cc1ccc2nc(-c3ccccc3Cl)c(NCc3ccccc3)n2c1")
"inactive"
>>> result("CCc1ccn2c(NCc3ccccc3)c(-c3cccs3)nc2c1")
"16%"
>>> result("COc1ccc(CNc2c(-c3cccs3)nc3ccc(C)cn23)cc1")
"14%"
>>> result("O=C(O)c1ccn2c(NCc3ccccc3)c(-c3cccs3)nc2c1")
"inactive"
>>> result("Cc1ccc2nc(-c3cccs3)c(NCCCCc3ccccc3)n2c1")
"17%"
